Test system: GM1 production in Jurkat cells
Test: cells
Format: cell-based
Conditions: Homo sapiens, Jurkat, 72 h
I'd be grateful if you could share measured IC50 for these entries.
Express the result in nM but write the number alone.

stdin: # query: IC50 | item COc1ccc2cc(-c3ccc4c(c3)CC(C)(C)C4NC(=O)O[C@@H]3CN4CCC3CC4)ccc2c1 (stereo partly shown) [Example 189] | system: GM1 production in Jurkat cells
stdout: 23

stdin: # query: IC50 | item O=C(NC1c2ccc(-c3ccc(F)cc3)cc2CC12CC2)O[C@@H]1CN2CCC1CC2 (stereo partly shown) [Example 389] | system: GM1 production in Jurkat cells
stdout: 76.5

stdin: # query: IC50 | item COc1cccc(OC)c1-c1ccc2c(c1)CC(C)(C)C2NC(=O)O[C@@H]1CN2CCC1CC2 (stereo partly shown) [Example 168] | system: GM1 production in Jurkat cells
stdout: 9.6

stdin: # query: IC50 | item CCC1(CC)Cc2cc(-c3cccc(C(F)F)c3)ccc2C1NC(=O)O[C@@H]1CN2CCC1CC2 (stereo partly shown) [Example 301] | system: GM1 production in Jurkat cells
stdout: 9.6

stdin: # query: IC50 | item COc1ccnc(OC)c1-c1ccc2c(c1)CC(C)(C)C2NC(=O)O[C@@H]1CN2CCC1CC2 (stereo partly shown) [Example 271] | system: GM1 production in Jurkat cells
stdout: 30.6

stdin: # query: IC50 | item CCC1(CC)Cc2cc(-c3ccc(OCC4CC4)nc3)ccc2C1NC(=O)O[C@@H]1CN2CCC1CC2 (stereo partly shown) [Example 308] | system: GM1 production in Jurkat cells
stdout: 5.5

stdin: # query: IC50 | item COc1cccc(-c2cc3c(cc2F)C(NC(=O)O[C@@H]2CN4CCC2CC4)C(C)(C)C3)c1 (stereo partly shown) [Example 375] | system: GM1 production in Jurkat cells
stdout: 23

stdin: # query: IC50 | item CC1(C)Cc2cc(-c3ccc(C4CC4)cc3)ccc2C1NC(=O)O[C@@H]1CN2CCC1CC2 (stereo partly shown) [Example 131] | system: GM1 production in Jurkat cells
stdout: 10.6

stdin: # query: IC50 | item Cc1cc(-c2ccc3c(c2)CC(C)(C)C3NC(=O)O[C@@H]2CN3CCC2CC3)ccc1N1CCOCC1 (stereo partly shown) [Example 151] | system: GM1 production in Jurkat cells
stdout: 37.9

stdin: # query: IC50 | item CCCOc1ccc(-c2ccc3c(c2)CC(C)(C)C3NC(=O)O[C@@H]2CN3CCC2CC3)cn1 (stereo partly shown) [Example 265] | system: GM1 production in Jurkat cells
stdout: 6.7

stdin: # query: IC50 | item CC1(C)Cc2cc(-c3ccc(OCCN4CCOCC4)cc3)ccc2C1NC(=O)O[C@@H]1CN2CCC1CC2 (stereo partly shown) [Example 117] | system: GM1 production in Jurkat cells
stdout: 41.8

stdin: # query: IC50 | item Cc1cc(F)ccc1-c1ccc2c(c1)CC(C)(C)C2NC(=O)O[C@@H]1CN2CCC1CC2 (stereo partly shown) [Example 228] | system: GM1 production in Jurkat cells
stdout: 48.6

stdin: # query: IC50 | item CC1(C)Cc2cc(-c3cc(Cl)ncc3Cl)ccc2C1NC(=O)O[C@@H]1CN2CCC1CC2 (stereo partly shown) [Example 119] | system: GM1 production in Jurkat cells
stdout: 38.3

stdin: # query: IC50 | item COCOc1cccc(-c2ccc3c(c2)CC2(CC2)C3NC(=O)O[C@@H]2CN3CCC2CC3)c1 (stereo partly shown) [Example 398] | system: GM1 production in Jurkat cells
stdout: 36.6

stdin: # query: IC50 | item CC1(C)Cc2cc(-c3ccc(F)cc3)ccc2C1NC(=O)O[C@@H]1CN2CCC1CC2 (stereo partly shown) [Example 73] | system: GM1 production in Jurkat cells
stdout: 26

stdin: # query: IC50 | item CC1(C)Cc2cc(-c3ccc(OCCF)cc3)ccc2C1NC(=O)O[C@@H]1CN2CCC1CC2 (stereo partly shown) [Example 115] | system: GM1 production in Jurkat cells
stdout: 38.3
